// reported Dissociation 1 (RU) per item
Target: recombinant E2 protein (Hepatitis C virus genotype 1b, UniProt Q9WMX2)
Construct: encoding amino acids 384-656 of the Con1 envelope protein 2 ectodomain (eE2); made in house; host or cells: HEK293T cells (lentiviral, secreted)
Sequence (Q9WMX2 384-656): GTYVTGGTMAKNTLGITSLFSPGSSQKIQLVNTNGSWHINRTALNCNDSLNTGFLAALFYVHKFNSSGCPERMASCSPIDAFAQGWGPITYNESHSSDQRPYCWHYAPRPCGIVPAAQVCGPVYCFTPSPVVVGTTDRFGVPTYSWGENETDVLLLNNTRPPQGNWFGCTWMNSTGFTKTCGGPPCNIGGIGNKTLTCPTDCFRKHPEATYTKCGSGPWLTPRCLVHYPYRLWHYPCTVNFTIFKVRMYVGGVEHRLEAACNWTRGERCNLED
Experiment: Surface plasmon resonance (Biacore T100) binding to recombinant E2 immobilized on CM5 chip
Settings: response remaining 10 sec after rinsing with buffer
Quick reminder: number only, in RU, skip the unit.

# count of solved cases: 3
c1ccc(-c2ccc3c(c2)N[C@H]([C@H]2Nc4cc(-c5ccccc5)ccc4O2)O3)cc1 [Ligand 84100] : 4.2
O=S(=O)(F)c1ccc2nc(-c3cccc(Sc4ccccc4)c3)cc(Cl)c2c1 [Ligand 158413] : 10.3
NC1=N/C(=N\c2ccccc2)N[C@H](c2ccccc2)N1 [Ligand 3076] : 3.2

molecule CC12CCC3C(CCC4Cc5[nH]c6ccccc6c5CC43C)C1CCC2O (centres unmarked) [Ligand 60785] , Dissociation 1 (RU) observed: 2.8

* * *

// reported Dissociation 2 (RU) per item
Target: recombinant E2 protein (Hepatitis C virus genotype 1b, UniProt Q9WMX2)
Construct: encoding amino acids 384-656 of the Con1 envelope protein 2 ectodomain (eE2); made in house; host or cells: HEK293T cells (lentiviral, secreted)
Experiment: Surface plasmon resonance (Biacore T100) binding to recombinant E2 immobilized on CM5 chip
Settings: response remaining 50 sec after rinsing with buffer
Quick reminder: number only, in RU, skip the unit.

# count of solved cases: 3
Cc1ccc([N+](=O)[O-])cc1NC(=O)Nc1ccc(S(N)(=O)=O)cc1 : 0.8
Cc1ccc([N+](=O)[O-])cc1NC(=O)Nc1onc(C)c1C : 0.8
CCCc1nc(NC(=O)c2ccccc2)nc(NC(=O)c2ccccc2)n1 : 0.8

Next compound, Dissociation 2 (RU) to be filled in.
compound C[C@]12CC[C@@H]3c4ccc(OCC(=O)O)cc4CC[C@H]3[C@@H]1CCC2=O , Dissociation 2 (RU) observed: 0.8

* * *

Target: recombinant E2 protein (Hepatitis C virus genotype 1b)
Construct: encoding amino acids 384-656 of the Con1 envelope protein 2 ectodomain (eE2); made in house; host or cells: HEK293T cells (lentiviral, secreted)
Test: Surface plasmon resonance (Biacore T100) binding to recombinant E2 immobilized on CM5 chip
Conditions: response remaining 10 sec after rinsing with buffer
Source text: A construct containing the sequence encoding amino acids 384-656 of the Con1 envelope protein 2 ectodomain (eE2), a genoptype 1 E2 sequence, was cloned into a lentiviral expression vector with a carboxy-terminal Protein A tag separated by a PreScission Protease cleavage consensus sequence. eE2-ProtA was stably expressed in HEK293T cells using lentiviral infection. […]
// reported Dissociation 1 (RU) per item

COc1ccc(C2=C[C@@H](c3ccc(OC)c(OC)c3)c3c(c4ccccc4oc3=O)O2)cc1OC [Ligand 211490] : 6.1 RU

molecule O=C(O)C[C@H]1OCC=C2CN3CC[C@]45c6ccccc6N[C@H]4[C@H]1[C@H]2C[C@H]35 [Ligand 121861] , Dissociation 1 (RU) observed: 26.1 RU

molecule NC1=N[C@@H](c2ccc(Cl)cc2)N(c2ccc(S(N)(=O)=O)cc2)C(N)=N1 [Ligand 117268] , Dissociation 1 (RU) observed: 4.1 RU

molecule NC(=O)C(=Cc1ccncc1)c1cccc2ccccc12 (stereo in doubt) [Ligand 144694] , Dissociation 1 (RU) observed: 6 RU
